- protocol: TIMS collisional cross section (CCS, N2) of the lipid ion; higher = larger ion cross section
- measurement setup: sample type: Liver; ionization mode: positive; one isomer drawn
Assign Fulfilled whenever TIMS collisional cross section does not fall below 300 Å²; assign Not fulfilled whenever it does.

compound	category label
CC/C=C\C/C=C\C/C=C\C/C=C\C/C=C\C/C=C\CCC(=O)O[C@H](COC(=O)CCCC/C=C\C/C=C\C/C=C\CCCCC)COP(=O)([O-])OCC[N+](C)(C)C [PC 18:3_22:6@] (ion (formula + adduct): [C48H78NO8P+H] 1+)	Not fulfilled

Q. Say whether CCCCCCCC/C=C\CCCCCCCCCC(=O)OC[C@@H](O)COP(=O)(O)OCCN [LPE 20:1] (ion (formula + adduct): [C25H50NO7P+H] 1+) shows TIMS collisional cross section of 300 Å² or more.
A. Not fulfilled

Q. Same read-out for CCCCC/C=C\C/C=C\C/C=C\CCCCCCC(=O)O[C@@H](CO)COC(=O)CCCCCCCCCCCCCCC [DG 16:0_20:3_0:0] (ion (formula + adduct): [C39H70O5+NH4] 1+) ?
A. Not fulfilled

Q. Same read-out for CCCCCC/C=C\CCCCCCCC(=O)OC[C@@H](O)COP(=O)(O)OCCN [LPE 16:1] (ion (formula + adduct): [C21H42NO7P+H] 1+) ?
A. Not fulfilled

Q. Same read-out for CCCCC/C=C\C/C=C\CCCCCCCCCCCC(=O)OC[C@@H](COC(=O)CCCCCCC/C=C\CCCCCCCC)OC(=O)CCCCCCCCCCC/C=C\CCCCCCCC [TG 18:1_22:1_22:2] (ion (formula + adduct): [C65H118O6+NH4] 1+) ?
A. Fulfilled

Q. Same read-out for CCCCCCC/C=C\CCCCCCCC(=O)O[C@@H](COC(=O)CCCCCCC/C=C\CCCCCCCC)COC(=O)CCCCCCCCCCCCC [TG 14:0_17:1_18:1] (ion (formula + adduct): [C52H96O6+NH4] 1+) ?
A. Fulfilled

Q. Same read-out for CCCCCCCC/C=C\CCCCCCCCCC(=O)O[C@H](COC(=O)CCCCCCC/C=C\CCCCCCCC)COC(=O)CCCCCCCCCCCCCCCCCCCC [TG 18:1_20:1_21:0] (ion (formula + adduct): [C62H116O6+NH4] 1+) ?
A. Fulfilled

Q. Same read-out for CC/C=C\C/C=C\C/C=C\C/C=C\C/C=C\C/C=C\CCC(=O)OC[C@@H](COC(=O)CCCCCCC/C=C\C/C=C\CCCCC)OC(=O)CCCCCCC/C=C\C/C=C\C/C=C\CC [TG 18:2_18:3_22:6] (ion (formula + adduct): [C61H96O6+NH4] 1+) ?
A. Fulfilled

Q. Same read-out for CCCCCCCC/C=C\CCCCCCCC(=O)OC[C@H](COC(=O)CCCCCCCCCCCCCCCCCCCCC)OC(=O)CCCCCCC/C=C\CCCCCCCC [TG 18:1_18:1_22:0] (ion (formula + adduct): [C61H114O6+NH4] 1+) ?
A. Fulfilled

---

- protocol: TIMS collisional cross section (CCS, N2) of the lipid ion; higher = larger ion cross section
- measurement setup: sample type: Liver; ionization mode: positive; one isomer drawn
value kind: TIMS collisional cross section (Å²)
Answers are plain numbers, in Å².

Solved entries (count: 3):
compound	TIMS collisional cross section / Å²
CCCCCCCCCCCCCCCC(=O)OC[C@@H](COC(=O)CCCCCCCCCCC)OC(=O)CCCCCCCCCCCCC [TG 12:0_14:0_16:0] (ion (formula + adduct): [C45H86O6+NH4] 1+)	295.2
CC/C=C\C/C=C\C/C=C\C/C=C\C/C=C\CCCC(=O)O[C@H](COC(=O)CCCCCCC/C=C\CCCCCC)COP(=O)([O-])OCC[N+](C)(C)C [PC 16:1@_20:5] (ion (formula + adduct): [C44H76NO8P+H] 1+)	282.8
CCCCC/C=C\C/C=C\CCCCCCCC(=O)O[C@H](COC(=O)CCCCCCC/C=C\CCCCCCCC)COC(=O)CCCCCCCCCCCCCCCCCCC [TG 18:1_18:2_20:0] (ion (formula + adduct): [C59H108O6+NH4] 1+)	332.3

Next:
Q. TIMS collisional cross section for CC/C=C\C/C=C\C/C=C\C/C=C\C/C=C\C/C=C\CCC(=O)OC[C@@H](COC(=O)CCCCCCC/C=C\C/C=C\CCCCC)OC(=O)CCC/C=C\C/C=C\C/C=C\C/C=C\CCCCC [TG 18:2_20:4_22:6] (ion (formula + adduct): [C63H98O6+NH4] 1+) ?
A. 330.4

---

- protocol: TIMS collisional cross section (CCS, N2) of the lipid ion; higher = larger ion cross section
- measurement setup: sample type: Liver; ionization mode: positive; one isomer drawn
value kind: TIMS collisional cross section (Å²)
One number for each entry, in Å².

Solved entries (count: 5):
molecule	TIMS collisional cross section / Å²
CCCCCCCC/C=C\CCCCCCCCCCCCCCCC(=O)N[C@@H](CO)[C@H](O)/C=C/CCCCCCCCCCCCC [Cer d18:1_26:1@] (ion (formula + adduct): [C44H85NO3+H] 1+)	289.4
CCCCCCCCCCCCCC(=O)OC[C@@H](COC(=O)CCCCCCCCCCC)OC(=O)CCCCCCCCCCCCC [TG 12:0_14:0_14:0] (ion (formula + adduct): [C43H82O6+NH4] 1+)	289.1
CCCC/C=C\CCCCCCCC(=O)OC[C@H](COC(=O)CCCCCCC/C=C\C/C=C\CCCCC)OC(=O)CCCCCCC/C=C\CCCCCC [TG 14:1_16:1_18:2] (ion (formula + adduct): [C51H90O6+NH4] 1+)	304.7
CCCCC/C=C\C/C=C\C/C=C\C/C=C\CCCC(=O)OC[C@H](COP(=O)(O)OCCN)OC(=O)CCCCCCCCCCCCCCCCCCC [PE 20:4_20:0] (ion (formula + adduct): [C45H82NO8P+H] 1+)	290.4
CCCCCCCCCCCCC/C=C/[C@@H](O)[C@H](CO)NC(=O)CCCCCCCCCCCCCCCCCCCCCCCC [Cer d18:1_25:0@] (ion (formula + adduct): [C43H85NO3+H] 1+)	284.1

Dear reader, for each entry below, please note its TIMS collisional cross section.
1. CC/C=C\C/C=C\C/C=C\C/C=C\C/C=C\CCCC(=O)OC[C@@H](COC(=O)CCCCCCCCCCCCCCC)OC(=O)CCCCCCC/C=C\C/C=C\CCCCC [TG 16:0_18:2_20:5] (ion (formula + adduct): [C57H96O6+NH4] 1+)
2. CCCC/C=C\CCCCCCCC(=O)OC[C@H](COC(=O)CCCCCCC/C=C\CCCCCC)OC(=O)CCCCCCC/C=C\CCCCCC [TG 14:1_16:1_16:1] (ion (formula + adduct): [C49H88O6+NH4] 1+)
3. CCCCC/C=C\C/C=C\CCCCCCCC(=O)O[C@H](COC(=O)CCCCCCCCCCCCCCCCCCC)COP(=O)([O-])OCC[N+](C)(C)C [PC 20:0_18:2] (ion (formula + adduct): [C46H88NO8P+H] 1+)
4. CCCCC/C=C\C/C=C\CCCCCCCC(=O)OC[C@H](COP(=O)([O-])OCC[N+](C)(C)C)OC(=O)CCCCCCCCCCCCCCCCCC [PC 18:2_19:0] (ion (formula + adduct): [C45H86NO8P+H] 1+)

A.
1: 318.1; 2: 301.9; 3: 297.5; 4: 294.4

---

- protocol: TIMS collisional cross section (CCS, N2) of the lipid ion; higher = larger ion cross section
- measurement setup: sample type: plasma; ionization mode: positive; one isomer drawn
Field: TIMS collisional cross section. Provide a value for each of the compounds that follow.
One number for each entry, in Å².

Solved entries (count: 2):
compound	observed measurement
CCCCCC/C=C\CCCCCCCC(=O)OC[C@H](COC(=O)CCCCCCCCCCCCCCCCCCCCC)OC(=O)CCCCCCCCCCCCCCCCC [TG 16:1_18:0_22:0] (ion (formula + adduct): [C59H112O6+NH4] 1+)	335.9
CC/C=C\C/C=C\C/C=C\C/C=C\C/C=C\C/C=C\CCC(=O)OC[C@@H](O)COP(=O)(O)OCCN [LPE 22:6] (ion (formula + adduct): [C27H44NO7P+H] 1+)	218.3

Next:
Q. TIMS collisional cross section for CCCCCCCCCCCCC/C=C/[C@@H](O)[C@H](CO[C@@H]1O[C@H](CO)[C@@H](O)C(O)C1O)NC(=O)CCCCCCCCCCCCCCCCCCCCC (stereo partly drawn) [GlcCer d18:1_22:0@] (ion (formula + adduct): [C46H89NO8+H] 1+) ?
A. 298.1

---

- protocol: TIMS collisional cross section (CCS, N2) of the lipid ion; higher = larger ion cross section
- measurement setup: sample type: HeLa; ionization mode: positive; one isomer drawn
Field: TIMS collisional cross section. Provide a value for each of the molecules that follow.
Give bare numbers, in Å².

molecule	value kind	observed measurement
CCCCCCCCCCCCCCCC(=O)O[C@H](COC(=O)CCCCCCCCCCCCC)COP(=O)([O-])OCC[N+](C)(C)C [PC 14:0_16:0] (ion (formula + adduct): [C38H76NO8P+H] 1+)	TIMS collisional cross section	280.6
[C@]12(CC=C3C[C@@H](O)CC[C@]3(C)[C@@]1([H])CC[C@]1(C)[C@@]([H])([C@@](C)([H])CC[C@@H]3O[C@@]3(C)C)CC[C@@]21[H])[H] [24,25-epoxy-cholesterol] (ion (formula + adduct): [C27H44O2+H] 1+)	TIMS collisional cross section	210.4
CCCCCCCCCCCCC/C=C/[C@@H](O)[C@H](CO[C@@H]1OC(CO)[C@@H](O[C@@H]2OC(CO)[C@H](O)[C@H](O)C2O)[C@H](O)C1O)NC(=O)CCCCCCCCCCCCCCC (some centres undefined) [GlcCer d18:1_16:0] (ion (formula + adduct): [C46H87NO13+H] 1+)	TIMS collisional cross section	304.1

Dear reader, for each entry below, please note its TIMS collisional cross section.
1. CCCCCC/C=C\CCCCCCCC(=O)O[C@H](COC(=O)CCCCCCCCCCCCCC)COP(=O)([O-])OCC[N+](C)(C)C [PC 15:0_16:1] (ion (formula + adduct): [C39H76NO8P+H] 1+)
2. CCCCCC/C=C\CCCCCCCC(=O)OC[C@H](COC(=O)CCCCCCC/C=C\CCCCCCCC)OC(=O)CCCCCCC/C=C\CCCCCCCC [TG 16:1_18:1_18:1] (ion (formula + adduct): [C55H100O6+NH4] 1+)
3. CCCCC/C=C\C/C=C\C/C=C\C/C=C\CCCC(=O)O[C@H](COC(=O)CCCCCCCCCCCCCCCCC)COP(=O)([O-])OCC[N+](C)(C)C [PC 18:0_20:4] (ion (formula + adduct): [C46H84NO8P+H] 1+)
4. CCCCCCCCCCCCCCC(=O)O[C@H](COC(=O)CCCCCCCCCCCCC)COP(=O)([O-])OCC[N+](C)(C)C [PC 14:0@_15:0] (ion (formula + adduct): [C37H74NO8P+H] 1+)
5. CCCC/C=C\CCCCCCCCCCOC[C@@H](O)COP(=O)([O-])OCC[N+](C)(C)C [LPC O- 16:1] (ion (formula + adduct): [C24H50NO6P+H] 1+)
6. CCCCCCCC/C=C\CCCCCCCC(=O)O[C@H](COC(=O)CCCCCCCCCCCCCCCCC)COC(=O)CCCCCCCCCCCCCCCCCCCCC [TG 18:0_18:1_22:0] (ion (formula + adduct): [C61H116O6+NH4] 1+)

A.
1: 278.9; 2: 320; 3: 296.2; 4: 276.1; 5: 225.4; 6: 341.8
